These entries and their values trace back to paper PMC3400123.

Answer each item with its documented Km.
molecular target: human P-gp-His10 (Homo sapiens); assay: Stimulation of ATPase activity of isolated human P-gp-His10; conditions: read-out: KM (concentration of compound required to achieve 50% maximal stimulation); isolated human P-gp-His10 in sheep brain phosphatidylethanolamine
Sequence (P08183 whole entry): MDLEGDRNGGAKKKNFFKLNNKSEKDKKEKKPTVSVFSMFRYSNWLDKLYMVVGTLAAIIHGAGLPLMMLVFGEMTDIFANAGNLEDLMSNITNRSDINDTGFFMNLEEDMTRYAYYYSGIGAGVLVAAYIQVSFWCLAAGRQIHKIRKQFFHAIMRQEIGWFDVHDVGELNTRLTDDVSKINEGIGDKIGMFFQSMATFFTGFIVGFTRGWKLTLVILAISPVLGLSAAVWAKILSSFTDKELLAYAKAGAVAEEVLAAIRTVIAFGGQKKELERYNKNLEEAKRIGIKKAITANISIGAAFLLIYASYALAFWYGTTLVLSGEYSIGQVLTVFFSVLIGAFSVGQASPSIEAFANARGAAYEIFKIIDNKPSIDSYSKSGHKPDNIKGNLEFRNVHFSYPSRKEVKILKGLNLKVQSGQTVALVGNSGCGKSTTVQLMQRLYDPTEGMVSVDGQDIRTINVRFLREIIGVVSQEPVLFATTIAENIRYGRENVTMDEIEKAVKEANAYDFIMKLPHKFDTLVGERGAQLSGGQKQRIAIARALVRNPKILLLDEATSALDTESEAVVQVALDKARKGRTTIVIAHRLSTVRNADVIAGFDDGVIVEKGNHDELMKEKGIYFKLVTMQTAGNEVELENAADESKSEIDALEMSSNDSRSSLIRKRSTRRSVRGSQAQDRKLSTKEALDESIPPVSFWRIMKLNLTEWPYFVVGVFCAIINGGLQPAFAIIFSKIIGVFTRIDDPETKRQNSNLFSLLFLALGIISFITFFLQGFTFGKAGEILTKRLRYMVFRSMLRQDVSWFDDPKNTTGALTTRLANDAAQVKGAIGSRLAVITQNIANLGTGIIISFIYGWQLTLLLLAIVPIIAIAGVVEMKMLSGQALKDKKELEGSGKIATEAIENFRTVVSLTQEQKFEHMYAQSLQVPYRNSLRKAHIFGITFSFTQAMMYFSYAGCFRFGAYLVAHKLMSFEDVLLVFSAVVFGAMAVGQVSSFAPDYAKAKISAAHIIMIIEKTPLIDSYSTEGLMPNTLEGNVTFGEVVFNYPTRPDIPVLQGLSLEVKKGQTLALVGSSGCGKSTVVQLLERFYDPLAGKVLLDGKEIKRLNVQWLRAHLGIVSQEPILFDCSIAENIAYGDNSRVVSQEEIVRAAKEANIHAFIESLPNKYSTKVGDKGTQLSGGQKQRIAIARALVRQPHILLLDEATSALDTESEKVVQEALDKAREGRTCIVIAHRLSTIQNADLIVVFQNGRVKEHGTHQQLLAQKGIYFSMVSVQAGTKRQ
Dear colleague, please send the value followed by its unit.

For CN(C)c1ccc2c(-c3ccc(C(=O)N4CCCCC4)s3)c3cc4c5c(c3[s+]c2c1)CCCN5CCC4.F[P-](F)(F)(F)(F)F the compound record lists Km as 1.9 µM

For CCN(CC)C(=O)c1ccc(-c2c3ccc(N(C)C)cc3[s+]c3c4c5c(cc23)CCCN5CCC4)s1.F[P-](F)(F)(F)(F)F the compound record lists Km as 3.6 µM

For CCN(CC)C(=S)c1ccc(-[c+]2c3ccc(N(C)C)cc3sc3cc4c(cc32)C(C)(C)CCN4C)s1.F[P-](F)(F)(F)(F)F the compound record lists Km as 3.1 µM

* * *

tested on: MDCKII-MDR1 cells; assay: Transport and cell association across MDCKII-MDR1 monolayers; assay type: in vitro ADME; conditions: secretory direction, no inhibitor, 5 × 10^−6 M dye, 4.3 mg mL^−1 BSA
MEASURE NAME: PBA

For the compound CN(C)c1ccc2c(-c3ccc(C(=O)N4CCCCC4)s3)c3cc4c5c(c3[s+]c2c1)CCCN5CCC4.F[P-](F)(F)(F)(F)F [Compound 7] , the measured PBA on MDCKII-MDR1 cells was 220 ± 29 10^−9 m s^−1

For the compound CCN(CC)C(=S)c1ccc(-c2c3ccc(N(C)C)cc3[s+]c3cc(N(C)C)ccc23)s1.F[P-](F)(F)(F)(F)F [Compound 2] , the measured PBA on MDCKII-MDR1 cells was 210 ± 17 10^−9 m s^−1

For the compound CCN(CC)C(=O)c1ccc(-c2c3ccc(N(C)C)cc3[s+]c3c4c5c(cc23)CCCN5CCC4)s1.F[P-](F)(F)(F)(F)F [Compound 5] , the measured PBA on MDCKII-MDR1 cells was 210 ± 22 10^−9 m s^−1

For the compound CCN(CC)C(=O)c1ccc(-[c+]2c3ccc(N(C)C)cc3sc3cc4c(cc32)C(C)(C)CCN4C)s1.F[P-](F)(F)(F)(F)F [Compound 9] , the measured PBA on MDCKII-MDR1 cells was 370 ± 17 10^−9 m s^−1

For the compound CCN(CC)C(=S)c1ccc(-c2c3ccc(N(C)C)cc3[s+]c3c4c5c(cc23)CCCN5CCC4)s1.F[P-](F)(F)(F)(F)F [Compound 6] , the measured PBA on MDCKII-MDR1 cells was 65.0 ± 1.5 10^−9 m s^−1

* * *

molecular target: UniProt P08183; assay: Stimulation of ATPase activity of isolated human P-gp-His10; details: read-out: KM (concentration of compound required to achieve 50% maximal stimulation); isolated human P-gp-His10 in sheep brain phosphatidylethanolamine
MEASURE NAME: Km (µM)
API: value field is a number in µM; no unit string.

For CCN(CC)C(=S)c1ccc(-c2c3ccc(N(C)C)cc3[s+]c3cc(N(C)C)ccc23)s1.F[P-](F)(F)(F)(F)F the compound record lists Km as 5.8

For CCN(CC)C(=O)c1ccc(-c2c3ccc(N(C)C)cc3[s+]c3cc(N(C)C)ccc23)s1 the compound record lists Km as 5.7

For CCN(CC)C(=O)c1ccc(-[c+]2c3ccc(N(C)C)cc3sc3cc4c(cc32)C(C)(C)CCN4C)s1.F[P-](F)(F)(F)(F)F the compound record lists Km as 2.2

For CCN(CC)C(=S)c1ccc(-c2c3ccc(N(C)C)cc3[s+]c3c4c5c(cc23)CCCN5CCC4)s1.F[P-](F)(F)(F)(F)F the compound record lists Km as 2.3
